# Ki against UniProt P41146, merged from multiple literature sources
# Sequence (P41146 whole entry): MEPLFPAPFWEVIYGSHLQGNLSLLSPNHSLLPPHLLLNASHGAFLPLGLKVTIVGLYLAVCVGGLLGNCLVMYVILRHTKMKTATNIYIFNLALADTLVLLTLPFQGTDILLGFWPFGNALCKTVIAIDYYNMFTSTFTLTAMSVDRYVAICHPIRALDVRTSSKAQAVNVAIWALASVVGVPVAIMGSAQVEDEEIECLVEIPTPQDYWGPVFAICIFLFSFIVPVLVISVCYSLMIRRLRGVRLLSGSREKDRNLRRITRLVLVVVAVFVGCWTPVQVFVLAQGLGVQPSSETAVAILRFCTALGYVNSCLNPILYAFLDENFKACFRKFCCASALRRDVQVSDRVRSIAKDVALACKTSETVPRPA
VALUE KIND: Ki (nM)

CC(=O)NC[C@@]1(C2CCCCN2)C[C@H]2CC[C@@H](C1)N2C(c1ccccc1Cl)c1ccccc1Cl (some centres undefined): 27
N[C@H](c1cccc(Cl)c1)[C@@H]1CCN1C(c1ccc(F)cc1)c1ccc(F)cc1: 684
N[C@H](c1cccc(Cl)c1)[C@@H]1CCN1C(c1ccc(Br)cc1)c1ccc(Br)cc1: 2530
N[C@@H](c1cccc(F)c1)[C@@H]1CCN1C(c1ccccc1)c1ccccc1: 191

1: CCCCCCC(c1ccccc1)N1CC[C@H]1[C@H](N)c1cccc(Cl)c1 (some centres undefined)
2: O[C@H]1C[C@H](CN2CCC(c3c(Cl)cccc3Cl)CC2)CCc2cccnc21
3: O[C@H]1C[C@H](CN2CCC(c3ccccc3Cl)CC2)CCc2cccnc21
4: O[C@H]1C[C@H](CN2CCC(c3ccccc3)CC2)CCc2cccnc21
Q: Rank descending by Ki. Reply format: the labels, ordered as requested.
Result: 1, 4, 3, 2
